Experimental Target: T1, βTrCP (tag cleaved and complexed with Skp1) (UniProt Q9Y297 175-605; P63208 1-163)
T1 construct: Protein of the FP assay (0.035 µM); also called Beta Transducin repeat-containing protein; βTrCP/Skp1
T1 sequence (Q9Y297 175-605, chain 1 of 2): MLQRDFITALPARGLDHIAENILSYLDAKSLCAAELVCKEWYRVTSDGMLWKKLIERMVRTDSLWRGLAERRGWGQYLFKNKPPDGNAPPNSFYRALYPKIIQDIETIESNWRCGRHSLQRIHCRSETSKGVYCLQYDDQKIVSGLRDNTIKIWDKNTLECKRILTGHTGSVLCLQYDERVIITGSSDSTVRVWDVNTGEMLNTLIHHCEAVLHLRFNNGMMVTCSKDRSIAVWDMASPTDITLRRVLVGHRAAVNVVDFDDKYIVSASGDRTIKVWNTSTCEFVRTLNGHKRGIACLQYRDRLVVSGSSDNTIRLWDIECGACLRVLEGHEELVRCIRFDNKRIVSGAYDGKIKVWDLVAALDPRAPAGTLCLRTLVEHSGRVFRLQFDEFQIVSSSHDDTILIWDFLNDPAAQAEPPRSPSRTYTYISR
T1 sequence (P63208 whole entry, chain 2 of 2): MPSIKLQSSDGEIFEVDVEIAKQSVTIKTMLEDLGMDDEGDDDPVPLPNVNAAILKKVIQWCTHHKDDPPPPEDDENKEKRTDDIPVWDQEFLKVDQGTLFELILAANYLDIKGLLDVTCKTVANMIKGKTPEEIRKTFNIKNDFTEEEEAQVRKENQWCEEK
Experiment Description: FP competition vs fluorescein-IκB peptide
Starred links: 1 amine or outer side, 2 acyl side, 3 side chain; linkers in the order of their positions; H or OH if unused. Non-standard residues stand in square brackets, D forms with d. *: point of attachment. Benzenesulfonyl(4-OMe) = COc1ccc(S(=O)(=O)*)cc1; E(Me) = COC(=O)CC[C@H](N[*:1])C(=O)[*:2]; Phe(3-Cl) = N[C@@H](Cc1cccc(Cl)c1)C(=O)O; Phe(3-F) = N[C@@H](Cc1cccc(F)c1)C(=O)O; Tos = Cc1ccc(S(=O)(=O)*)cc1
Outcome Measure: pIC50
pIC50 field: float, defined as -log10 of concentration (mol/L).

# example entries with known answers
1) Tos-[dD]DG[Phe(3-F)]WD-NH2 (SMILES Cc1ccc(S(=O)(=O)N[C@H](CC(=O)O)C(=O)N[C@@H](CC(=O)O)C(=O)NCC(=O)N[C@@H](Cc2cccc(F)c2)C(=O)N[C@@H](Cc2c[nH]c3ccccc23)C(=O)N[C@@H](CC(=O)O)C(N)=O)cc1, also called UBP028) [Ts-dDGF(3F)WD-NH2]	7.09
2) Tos-[dD]EG[Phe(3-F)]W[E(Me)]-NH2 (also called UBP032) [Ts-dEGF(3F)WE(Me)-NH2]	7.66
3) Tos-[dD]EG[Phe(3-Cl)]W[E(Me)]-NH2 (also called UBP033) [Ts-dEGF(3Cl)WE(Me)-NH2]	7.77

Okay, now this binder:
pIC50 reported for this binder {Benzenesulfonyl(4-OMe)}-DEG[Phe(3-F)]WE-NH2 (SMILES COc1ccc(S(=O)(=O)N[C@@H](CC(=O)O)C(=O)N[C@@H](CCC(=O)O)C(=O)NCC(=O)N[C@@H](Cc2cccc(F)c2)C(=O)N[C@@H](Cc2c[nH]c3ccccc23)C(=O)N[C@@H](CCC(=O)O)C(N)=O)cc1, also called UBP026) [4-(MeO)-PhSO2-DEGF(3F)WE-NH2] : 7.57
